PROTOCOL_DESCRIPTION: Pharmacokinetics of dC3 and β-lap after intravenous injection
Format: in vivo, Sprague Dawley rats
MEASUREMENT_CONTEXT: Sprague Dawley, rat, plasma, 50 mg/kg (β-lap equivalent dose), β-lap once converted from dC3, read-out: pharmacokinetic half-life
VALUE_KIND: half-life

Per the records, this compound ( CC1(C)CCC2=C(O1)c1ccccc1C(=O)C2=O ) has half-life equal to ~24 min

----------
PROTOCOL_DESCRIPTION: Solubility and apparent drug concentration
Type: physicochemical
VALUE_KIND: solubility

Looking up CCC(=O)Oc1c2c(c3ccccc3c1OC(=O)CC)OC(C)(C)CC2 , I found its solubility recorded as < 0.1 µg/mL
